molecular target: UniProtKB P29274; assay: A2A binding affinity using radioligand binding, Method (A); conditions: Method (A): filtration radioligand binding, [3H] SCH58261, membranes expressing human A2A
Sequence (P29274 whole entry): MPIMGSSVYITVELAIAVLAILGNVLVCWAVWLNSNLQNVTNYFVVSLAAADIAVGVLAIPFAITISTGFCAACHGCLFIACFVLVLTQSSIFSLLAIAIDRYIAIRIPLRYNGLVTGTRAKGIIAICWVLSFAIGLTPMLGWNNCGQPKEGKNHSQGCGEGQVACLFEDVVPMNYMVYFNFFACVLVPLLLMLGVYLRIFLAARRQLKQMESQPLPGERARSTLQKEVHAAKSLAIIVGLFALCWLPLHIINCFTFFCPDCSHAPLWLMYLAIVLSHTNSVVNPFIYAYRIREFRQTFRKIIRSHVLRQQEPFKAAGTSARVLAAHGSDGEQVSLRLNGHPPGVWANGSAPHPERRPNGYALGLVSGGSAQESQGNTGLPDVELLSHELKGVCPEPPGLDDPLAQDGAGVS
Parameter Measured: log10 of IC50 (log10 of the value in nM)
Values below are the log10 of the recorded IC50, with nM as the unit.

**Query** Fill blank: measured log10 of IC50 of the molecule COc1cccc2c1nc(N)n1nc(CCC3CCc4c(cnn4C(C)C)C3)nc21 (single isomer, unassigned) [Example 7.8A] is ____.
**Result** 0.32

**Query** Fill blank: measured log10 of IC50 of the molecule CCS(=O)(=O)CCc1nc2c3ccc(OC)cc3nc(N)n2n1 is ____.
**Result** 2.39

**Query** Fill blank: measured log10 of IC50 of the molecule COc1cccc2c1nc(N)n1nc(CCC3CCc4nn(C(C)C)cc4C3)nc21 (single isomer, unassigned) [Example 7.2B] is ____.
**Result** 0.36

**Query** Fill blank: measured log10 of IC50 of the molecule COc1cc(F)cc2c1nc(N)n1nc(CCC3CCc4c(nnn4C4CC(F)(F)C4)C3)nc21 (single isomer, unassigned) [Example 7.6A] is ____.
**Result** 0.00

**Query** Fill blank: measured log10 of IC50 of the molecule COc1cccc2c1nc(N)n1nc(CCC3CCc4nn(C(C)C)cc4C3)nc21 (single isomer, unassigned) [Example 7.2A] is ____.
**Result** 0.40

**Query** Fill blank: measured log10 of IC50 of the molecule Nc1nc2c(F)cc(F)cc2c2nc(CCCS(=O)(=O)C3CC3)nn12 is ____.
**Result** 1.53

**Query** Fill blank: measured log10 of IC50 of the molecule COc1cccc2c1nc(N)n1nc(C[C@H](C)O)nc21 is ____.
**Result** 0.83

**Query** Fill blank: measured log10 of IC50 of the molecule COc1cccc2c1nc(N)n1nc(COC3CCc4c(nnn4C4CC(F)(F)C4)C3)nc21 (single isomer, unassigned) [Example 2.2A] is ____.
**Result** 0.53

**Query** Fill blank: measured log10 of IC50 of the molecule COc1cc2nc(N)n3nc(CCS(=O)(=O)c4ccccc4)nc3c2cc1F is ____.
**Result** 0.68

**Query** Fill blank: measured log10 of IC50 of the molecule CN=S(=O)(CCc1nc2c3cccc(OC)c3nc(N)n2n1)C1CC1 (single isomer, unassigned) [Example 10.3A] is ____.
**Result** 0.15

**Query** Fill blank: measured log10 of IC50 of the molecule COc1cccc2c1nc(N)n1nc(COCc3ccc(C(C)(C)O)cc3)nc21 is ____.
**Result** -0.70

**Query** Fill blank: measured log10 of IC50 of the molecule COc1cc2nc(N)n3nc(CCS(N)(=O)=O)nc3c2cc1F is ____.
**Result** 2.03

**Query** Fill blank: measured log10 of IC50 of the molecule COc1cccc2c1nc(N)n1nc(CC(C)(C)O)nc21 is ____.
**Result** 1.49

**Query** Fill blank: measured log10 of IC50 of the molecule COc1cccc2c1nc(N)n1nc(CCS(=O)(=O)C3CC3)nc21 is ____.
**Result** 0.20

**Query** Fill blank: measured log10 of IC50 of the molecule COc1cc(F)cc2c1nc(N)n1nc(CCC3CCc4c(cnn4C(C)C)C3)nc21 (single isomer, unassigned) [Example 7.7B] is ____.
**Result** 0.41

**Query** Fill blank: measured log10 of IC50 of the molecule COc1cc(F)cc2c1nc(N)n1nc(CCCS(=O)(=O)C3CC3)nc21 is ____.
**Result** 0.04

**Query** Fill blank: measured log10 of IC50 of the molecule COc1cccc2c1nc(N)n1nc(CS(=O)(=O)c3ccccc3)nc21 is ____.
**Result** 0.62

**Query** Fill blank: measured log10 of IC50 of the molecule COc1cc2nc(N)n3nc(CCS(C)(=O)=O)nc3c2cc1F is ____.
**Result** 2.35

**Query** Fill blank: measured log10 of IC50 of the molecule COc1cc2nc(N)n3nc(CCS(=O)(=O)C4CC4)nc3c2cc1F is ____.
**Result** 0.96

**Query** Fill blank: measured log10 of IC50 of the molecule CN=S(=O)(CCc1nc2c3cccc(OC)c3nc(N)n2n1)C1CC1 (single isomer, unassigned) [Example 10.3B] is ____.
**Result** 0.57

**Query** Fill blank: measured log10 of IC50 of the molecule Nc1nc2c(F)cc(F)cc2c2nc(CCC3CCn4c(cnc4C4CC(F)(F)C4)C3)nn12 (single isomer, unassigned) is ____.
**Result** 1.50

---

molecular target: human A2B adenosine receptor (Homo sapiens (Human)); test: A2B binding affinity, radioligand filtration binding assay; conditions: value given with marker (A); HEK293 membranes expressing human A2B, tritiated proprietary antagonist
Sequence (P29275 whole entry): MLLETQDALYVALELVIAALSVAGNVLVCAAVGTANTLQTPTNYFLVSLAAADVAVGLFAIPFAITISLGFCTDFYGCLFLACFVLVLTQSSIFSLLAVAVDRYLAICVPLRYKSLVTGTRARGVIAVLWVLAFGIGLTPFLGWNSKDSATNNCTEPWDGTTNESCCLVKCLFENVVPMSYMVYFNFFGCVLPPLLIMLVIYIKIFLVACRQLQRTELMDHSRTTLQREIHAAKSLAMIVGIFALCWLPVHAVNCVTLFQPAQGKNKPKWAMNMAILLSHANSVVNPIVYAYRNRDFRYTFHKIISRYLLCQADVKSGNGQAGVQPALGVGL
Parameter Measured: pIC50
Please treat pIC50 as minus the base-10 logarithm of the molar concentration.

**Query** Entry COc1ccc2c(c1)nc(N)n1nc(CCS(=O)(=O)CC(C)C)nc21 , system human A2B adenosine receptor (Homo sapiens (Human)): what pIC50 was measured?
**Result** 6.05

**Query** Entry COc1cc(F)cc2c1nc(N)n1nc(CCCS(=O)(=O)C3CC3)nc21 , system human A2B adenosine receptor (Homo sapiens (Human)): what pIC50 was measured?
**Result** 6.95

**Query** Entry COc1cc2nc(N)n3nc(CCS(=O)(=O)c4ccc(F)cc4)nc3c2cc1F , system human A2B adenosine receptor (Homo sapiens (Human)): what pIC50 was measured?
**Result** 5.98

**Query** Entry COc1cc(F)cc2c1nc(N)n1nc(CCS(=O)(=O)C3CC3)nc21 , system human A2B adenosine receptor (Homo sapiens (Human)): what pIC50 was measured?
**Result** 8.01

**Query** Entry COc1cc(F)cc2c1nc(N)n1nc(CCS(=O)(=O)CC(C)C)nc21 , system human A2B adenosine receptor (Homo sapiens (Human)): what pIC50 was measured?
**Result** 6.18

**Query** Entry COc1cc2nc(N)n3nc(CC(C)S(C)(=O)=O)nc3c2cc1F (single isomer, unassigned) [Example 13.2B] , system human A2B adenosine receptor (Homo sapiens (Human)): what pIC50 was measured?
**Result** 5.98

**Query** Entry COc1cccc2c1nc(N)n1nc(CCS(=O)(=O)c3ccc(F)cc3)nc21 , system human A2B adenosine receptor (Homo sapiens (Human)): what pIC50 was measured?
**Result** 6.01

**Query** Entry COc1cc(F)cc2c1nc(N)n1nc(COCc3ccc(C(O)(C(F)(F)F)C(F)(F)F)cc3)nc21 , system human A2B adenosine receptor (Homo sapiens (Human)): what pIC50 was measured?
**Result** 9.05

**Query** Entry CCS(=O)(=O)CCc1nc2c3cc(F)c(OC)cc3nc(N)n2n1 , system human A2B adenosine receptor (Homo sapiens (Human)): what pIC50 was measured?
**Result** 5.77

**Query** Entry COc1cccc2c1nc(N)n1nc(COCc3ccc(C(O)(C(F)(F)F)C(F)(F)F)cc3)nc21 , system human A2B adenosine receptor (Homo sapiens (Human)): what pIC50 was measured?
**Result** 9.22

**Query** Entry COc1ccc2c(c1)nc(N)n1nc(CCS(=O)(=O)c3ccc(F)cc3)nc21 , system human A2B adenosine receptor (Homo sapiens (Human)): what pIC50 was measured?
**Result** 6.22

**Query** Entry COc1cc2nc(N)n3nc(CCS(N)(=O)=O)nc3c2cc1F , system human A2B adenosine receptor (Homo sapiens (Human)): what pIC50 was measured?
**Result** 6.95

**Query** Entry COc1cccc2c1nc(N)n1nc(CCC3CCc4c(nnn4C(C)C)C3)nc21 (single isomer, unassigned) , system human A2B adenosine receptor (Homo sapiens (Human)): what pIC50 was measured?
**Result** 7.92

**Query** Entry COc1cccc2c1nc(N)n1nc(CCS(C)(=O)=O)nc21 [Example 6.3] , system human A2B adenosine receptor (Homo sapiens (Human)): what pIC50 was measured?
**Result** 6.27

**Query** Entry COc1cccc2c1nc(N)n1nc(CC3CC3c3ccc(C(C)(C)N)cc3)nc21 (single isomer, unassigned) , system human A2B adenosine receptor (Homo sapiens (Human)): what pIC50 was measured?
**Result** 8.48

**Query** Entry COc1cccc2c1nc(N)n1nc(CCS(C)(=O)=O)nc21 [Example 13.17] , system human A2B adenosine receptor (Homo sapiens (Human)): what pIC50 was measured?
**Result** 6.39

**Query** Entry COc1cc2nc(N)n3nc(CCS(=O)(=O)CC(C)C)nc3c2cc1F , system human A2B adenosine receptor (Homo sapiens (Human)): what pIC50 was measured?
**Result** 5.97

**Query** Entry COc1cccc2c1nc(N)n1nc(COCc3ccc(C(C)(C)O)cc3)nc21 , system human A2B adenosine receptor (Homo sapiens (Human)): what pIC50 was measured?
**Result** 8.00

**Query** Entry COc1cc(F)cc2c1nc(N)n1nc(CCC3CCc4nn(C(C)C)cc4C3)nc21 (single isomer, unassigned) , system human A2B adenosine receptor (Homo sapiens (Human)): what pIC50 was measured?
**Result** 8.03
